# Tested on: OVCAR3 ovarian cancer cell line
# methodNotes: IC50 in ovarian cancer cell line OVCAR3
# Type: cell-based
# runConditions: OVCAR3
pIC50: −log10 of the molar value.
Category scheme (pIC50): 1 = under 6, 2 = from 6 up to 8, 3 = 8 and over

Below, 4 molecules whose answers are already recorded.
COc1cc([C@@H]2c3cc4c(cc3[C@@H](O[C@@H]3O[C@@H]5CO[C@@H](C)O[C@H]5[C@H](O)[C@H]3O)[C@H]3COC(=O)[C@H]23)OCO4)cc(OC)c1O [ETOPO, etoposide, reference compound] :: 1
COc1cc2c(OC3OC(CO)C4OC5(CCCC5)OC4C3O)c3c(c(-c4ccc5c(c4)OCO5)c2cc1OC)C(=O)OC3 (stereo not drawn) [PHY-43] :: 2
COCC1OC(Oc2c3c(c(-c4ccc5c(c4)OCO5)c4cc(OC)c(OC)cc24)C(=O)OC3)C(OC)C2OC(C)(C)OC12 (stereo not drawn) [PHY-35] :: 3
COc1cc2c(OC3OC(CO)C4OC5(CCCCC5)OC4C3O)c3c(c(-c4ccc5c(c4)OCO5)c2cc1OC)C(=O)OC3 (stereo not drawn) [PHY-42] :: 2

Incoming: Please report the category associated with COc1cc2c(OC)c3c(c(-c4ccc5c(c4)OCO5)c2cc1OC)C(=O)OC3 [PHY-26] , nothing else.
Outgoing: 1

Incoming: Please report the category associated with COc1cc2c(OC3OC(CO)C4OC(C)(C)OC4C3OC)c3c(c(-c4ccc5c(c4)OCO5)c2cc1OC)C(=O)OC3 (stereo not drawn) [PHY-37] , nothing else.
Outgoing: 3

Incoming: Please report the category associated with COc1cc2c(OC3OC(CO)C4OC(C)(C)OC4C3O)c3c(c(-c4ccc5c(c4)OCO5)c2cc1OC)C(=O)OC3 (stereo not drawn) [PHY-34] , nothing else.
Outgoing: 3

Just for reference, patent US10682367B2 is where these values come from.
